assay: NCI Yeast Anticancer Drug Screen. Data for the rad50 strain (AID 155);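 note: 0% = growth of vehicle-only cultures of the same strain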; conditions: S. cerevisiae rad50 strain growth inhibition; at 50.0 µM; active compounds read high
Compounds without any hit were thinned out: in the full panel of roughly 79,000, 15% have a hit.
Reported growth inhibition values are given for each entry in this list.
Supply the numeric figure in %, leaving out any unit text.

For orientation, consider the following solved cases.
| compound | growth inhibition, % |
| --- | --- |
| CC1Oc2c(c(=O)oc3ccccc23)[C@@]1(C)CC1C[C@H](C)C(=O)O1 (stereo partly drawn) | 31.6 |
| CCN(CC)CCOC(=O)c1ccc(NC(=O)Nc2ccccc2[N+](=O)[O-])cc1 | 19.4 |
| CCOC(=O)Cc1nc(Cl)c2c(C)c(C)sc2n1 | 29.8 |
| O=c1[nH]cnc2ccccc12 | 39 |
| CN1CCCCC1CCN1CCCCC1 (stereo not drawn) | -38.9 |
| CC(CO)(CO)N1C(=O)C2C3c4ccccc4C(c4ccccc43)C2C1=O (stereo not drawn) | -2 |
| CC(=O)c1nc(C#N)c(N)o1 | 1.9 |
| C=CCN1C(=O)c2ccccc2S1(=O)=O | 8.2 |

IN: Need growth inhibition, item C/C=C\COC(=O)CC(C)=O
OUT: -1.35

IN: Need growth inhibition, item COC(=O)C(C(=O)C(=O)Nc1cccc(O)c1)c1nc2ccc(Cl)cc2[nH]c1=O (stereo not drawn)
OUT: -19

IN: Need growth inhibition, item CSc1ccccc1C1CCCCCC1O (stereo not drawn)
OUT: 11

IN: Need growth inhibition, item NC(=O)C1=C(O)C(=O)NC1=O
OUT: 1.6

IN: Need growth inhibition, item NC(CCSc1ccccc1)C(=O)O (stereo not drawn)
OUT: -0.7

###

assay: NCI Yeast Anticancer Drug Screen. Data for the rad50 strain (AID 155);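 note: 0% = growth of vehicle-only cultures of the same strain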; details: S. cerevisiae rad50 strain growth inhibition; at 50.0 µM; active compounds read high
The panel holds about 79,000 compounds, 15% with a hit somewhere; the sample as a whole holds those more often.
measured.metric: growth inhibition (%)
Supply the numeric figure in %, leaving out any unit text.

For orientation, consider the following solved cases.
| compound | growth inhibition (%) |
| --- | --- |
| CCCCCCCCC(Cl)C(Cl)CCCCCCCC(=O)OC (stereo unspecified) | -30.2 |
| CC(=O)O[C@H]1CCN2C(=O)C=CC(OCc3ccccc3)C12 (stereo partly specified) | 3.8 |
| CCN(Cc1ccc(CN(CC)C(=O)c2c(-c3ccccc3)noc2C)cc1)C(=O)c1c(-c2ccccc2)noc1C | 13.6 |
| CC(=O)[O][Ga]([Cl])[O]C(C)=O | 22.2 |
| CC(=O)Oc1cc2c(cc1OC(C)=O)C(=O)c1cc3c(cc1C2=O)OCO3 | -31.7 |
| CC(=O)Nc1nc(Cl)c2cc[nH]c2n1 | -1.05 |
| CCC1N(C)CCCN1C | 9.25 |
| O=C(CSc1nnc(-c2ccc(N=Cc3ccc(Cl)cc3)cc2)o1)Nc1ccc(Cl)cc1 | 3.1 |

IN: Need growth inhibition, item CCCCCCCCCCCC1=C(O)C(=O)C(Br)=C(O)C1=O
OUT: 39.6

IN: Need growth inhibition, item COc1ccc(OC)c(CNc2ccc(C(=O)O)cc2)c1
OUT: 11.4

IN: Need growth inhibition, item O=C1C2C3CCC(C3)C2C(=O)C2C3CCC(C3)C12 (stereo unspecified)
OUT: -1.6

IN: Need growth inhibition, item CN(C)c1ccc(Cc2c[nH]c3ccccc3c2=O)cc1
OUT: 8.4

IN: Need growth inhibition, item O=C(O)COc1ccccc1P(=O)(c1ccccc1)c1ccccc1
OUT: 23.1

###

test: NCI Yeast Anticancer Drug Screen. Data for the mlh1 rad18 strain (AID 175); details: S. cerevisiae mlh1 rad18 strain growth inhibition; at 50.0 µM; active compounds read high
Compounds without any hit were thinned out: in the full panel of roughly 79,000, 15% have a hit.
Kindly return Yes if reported growth inhibition is no lower than 20%; return No if it is lower.

Worked examples follow.
| compound | label |
| --- | --- |
| CC(C)(C)CC(C)(C)c1cc2c(O)c(c1)Cc1cc(C(C)(C)CC(C)(C)C)cc(c1O)Cc1cc(C(C)(C)CC(C)(C)C)cc(c1O)Cc1cc(C(C)(C)CC(C)(C)C)cc(c1O)Cc1cc(C(C)(C)CC(C)(C)C)cc(c1O)Cc1cc(C(C)(C)CC(C)(C)C)cc(c1O)C2 | No |
| CC1(C)CNC[C@](C)(OCc2ccccc2)N1 | No |
| CC(=O)OC1CCC2(C)C(=CCC3C2CCC2(C)/C(=N\NS(=O)(=O)c4ccc(C)cc4)CCC32)C1 (stereo unspecified) | Yes |
| Cn1c(=O)c2snnc2n(C)c1=O | No |
| Cc1ccc(S(=O)(=O)N/N=C/c2oc(-c3ccccc3Cl)c(-c3ccccc3Cl)c2[N+](=O)[O-])cc1 | Yes |

For the next question, use this compound.
IN: State whether the measured growth inhibition reaches 20%, counting equality as reaching it, for c1ccc2[nH]c3[nH]c4[nH]c5ccccc5[nH]c4[nH]c3[nH]c2c1
OUT: No

###

Reported growth inhibition values are given for each entry in this list.
assay: NCI Yeast Anticancer Drug Screen. Data for the mec2-1 strain (AID 157); conditions: S. cerevisiae mec2-1 strain, at 50.0 µM, active compounds read high
This is part of a sample that, as a whole, favours compounds with a hit. Of some 79,000 tested, about 15% had one in any assay. Active and inactive are the calls of the source. Rule as the data show it: active = growth inhibition above about 70%; inactive = the rest.

For orientation, consider the following solved cases.
| molecule | test.value |
| --- | --- |
| CCN(c1ccccc1)S(=O)(=O)c1ccc(Oc2ccccc2)c(N)c1 | -18.9% (inactive) |
| O=C1CSC(c2ccccc2F)N1c1ncccn1 (configuration not stated) | -6.8% (inactive) |
| COc1cccc(-c2cc(=O)c3cccnc3[nH]2)c1 | 3.25% (inactive) |
| O=C(O)c1ccc(Cl)cc1C(=O)c1ccc(Cl)cc1 | 8.75% (inactive) |
| CC[N+]1(C)CC2CCC1C2 (configuration not stated) | 17.1% (inactive) |
| O=C1CSC(c2cccc(C(F)(F)F)c2)N1c1nncs1 (configuration not stated) | 2.15% (inactive) |
| CCOC(=O)Cc1nc(Cl)c2c(C)c(C)sc2n1 | 5.6% (inactive) |
| O=C(O)CC(Nc1ncccn1)C(=O)O (configuration not stated) | 6% (inactive) |
| O=C(C[n+]1ccncc1)c1cccc([N+](=O)[O-])c1 | -1.95% (inactive) |
| COC(=O)c1ccccc1NC(=O)/C(=N\NC(C)(C)C)C(C#N)c1nc(-c2ccc([N+](=O)[O-])cc2)cs1 (configuration not stated) | 14% (inactive) |

IN: Need growth inhibition, item COc1ccc(N=C2[Se]C(=NC(=O)c3ccccc3)N(c3ccc(OC)cc3)C2=Nc2ccc(OC)cc2)cc1
OUT: -25.5% (inactive)

IN: Need growth inhibition, item CC(O)C(O)C(O)C(=O)C=O (configuration not stated)
OUT: 29.1% (inactive)

###

Reported growth inhibition values are given for each entry in this list.
test: NCI Yeast Anticancer Drug Screen. Data for the mlh1 rad18 strain (AID 175); settings: S. cerevisiae mlh1 rad18 strain growth inhibition; at 50.0 µM; active compounds read high
This is part of a sample that, as a whole, favours compounds with a hit. Of some 79,000 tested, about 15% had one in any assay.
Supply the numeric figure in %, leaving out any unit text.

For orientation, consider the following solved cases.
| compound | growth inhibition [%] |
| --- | --- |
| Cc1ccc2nc(CC(=O)c3ccccc3)c(CC(=O)c3ccccc3)nc2c1 | -2.9 |
| O=C(c1ccccc1)C(O)(c1ccccc1)c1ccccc1 | 0.8 |
| OC1(CCC2OCCO2)c2ccccc2-c2ccccc21 | 2.85 |
| CCCCN=Cc1ccc(Cl)cc1 | -6 |

IN: Need growth inhibition, item COc1ccc(C(C#N)Cc2ccccc2)c([N+](=O)[O-])c1 (configuration not stated)
OUT: 16.4

IN: Need growth inhibition, item CS(=O)(=O)c1ccc(C=O)cc1
OUT: 8.3

IN: Need growth inhibition, item CCOc1c(N=Nc2ccccc2)c(C)nn1C(N)=S
OUT: 3.4

IN: Need growth inhibition, item COc1cccc(NC(=O)/C(CS(=O)(=O)CCC(C(C)=O)C(C)=O)=N\NC(C)(C)C)c1
OUT: 7.1

###

Assay: NCI Yeast Anticancer Drug Screen. Data for the mec2-1 strain (AID 157)
Conditions: S. cerevisiae mec2-1 strain, at 50.0 µM, active compounds read high
Experimental: Growth inhibition of yeast strains with defined genetic alterations is measured as a screen for potential anti-cancer activity. Selected strains with alterations in DNA damage repair or cell cycle control were exposed to compounds and growth inhibition was measured relative to vehicle treated controls. The strain used in this assay is mec2-1
Compounds without any hit were thinned out: in the full panel of roughly 79,000, 15% have a hit. Active and inactive are the calls of the source. No stated cut-off is given here; in the data, active means growth inhibition above about 70%; inactive means the rest.
Reported growth inhibition values are given for each entry in this list.

For orientation, consider the following solved cases.
| given.smiles | growth inhibition |
| --- | --- |
| CNc1ncnc2c1cnn2-c1ccc(Cl)cc1 | -6.85% (inactive) |
| CCOC(=O)O/C(C)=C\c1ccccc1Cl | -1.15% (inactive) |
| CCCCSCCOC(=O)Nc1ccc(Cl)cc1 | 99.3% (active) |
| Cc1cc(N)c(C)c2ccncc12 | 0% (inactive) |
| NC(=O)Cn1c(=O)[nH]c(=O)c2[nH]cnc21 | -2.1% (inactive) |

IN: Need growth inhibition, item O=C1/C(=C\c2ccccc2)Cc2cc3c(cc21)OCO3
OUT: 1.85% (inactive)

IN: Need growth inhibition, item O=C1c2ccccc2C(=O)N1/N=C1/SC(=Nc2ccccc2)C(=Nc2ccccc2)N1c1ccccc1
OUT: 0% (inactive)
